The measurements presented in this section are drawn from patent US20070276011A1.

Target: recombinant human PAI-1 (Homo sapiens)
Sequence (P05121 24-402): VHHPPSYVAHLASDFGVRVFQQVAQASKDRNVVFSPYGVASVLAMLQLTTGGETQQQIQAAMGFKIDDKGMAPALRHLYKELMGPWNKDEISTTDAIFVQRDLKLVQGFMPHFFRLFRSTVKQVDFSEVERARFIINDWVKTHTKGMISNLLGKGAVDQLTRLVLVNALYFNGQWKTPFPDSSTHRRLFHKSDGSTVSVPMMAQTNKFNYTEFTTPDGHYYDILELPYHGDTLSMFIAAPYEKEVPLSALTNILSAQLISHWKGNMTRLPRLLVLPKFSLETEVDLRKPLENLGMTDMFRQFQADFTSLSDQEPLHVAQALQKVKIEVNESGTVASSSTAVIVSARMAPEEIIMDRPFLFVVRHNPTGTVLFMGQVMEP
Assay: PAI-1 inhibitory activity, Test Method A (tPA fluorogenic substrate, Tris buffer pH8.0, 37 C)
Format: biochemical
Settings: test compound 25 μM; Test Method A
Please provide measured Inhibitory Ratio at 25 μM (%) for the entries that follow.
Numbers only, in %.

Would you please look over these solved cases?
COMPOUND	ASSAYED TARGET	UNIT SYMBOL	Inhibitory Ratio at 25 μM (%)
CC1=NN(c2cccc(C(=O)O)c2)C(=O)C1=Cc1ccccc1	recombinant human PAI-1 (Homo sapiens)	%	32
O=C1C(=Cc2ccc(O)c(O)c2O)C(c2ccccc2)=NN1c1ccc(Cl)c(Cl)c1	recombinant human PAI-1 (Homo sapiens)	%	62
O=C1SC(=Cc2cccc(O)c2O)C(=O)N1Cc1cccc([N+](=O)[O-])c1	recombinant human PAI-1 (Homo sapiens)	%	93
Nc1ccc(C=C2SC(=O)N(Cc3ccc(Cl)c(Cl)c3)C2=O)cc1O	recombinant human PAI-1 (Homo sapiens)	%	65
O=C1C(=Cc2ccc(O)c(O)c2)SC(=S)N1c1ccc(O)c(O)c1	recombinant human PAI-1 (Homo sapiens)	%	20
COC(=O)c1cccc(N2N=C(c3ccccc3)C(=Cc3ccc(-c4cc(Cl)cc(Cl)c4)o3)C2=O)c1	recombinant human PAI-1 (Homo sapiens)	%	90
O=C(O)c1cccc(N2N=C(C(F)(F)F)C(=Cc3ccc(-c4cc(Cl)cc(Cl)c4)o3)C2=O)c1 [compound 218]	recombinant human PAI-1 (Homo sapiens)	%	95
CC(C)(C)C1=NN(c2ccccc2)C(=O)C1=Cc1ccc(O)c(O)c1	recombinant human PAI-1 (Homo sapiens)	%	55
COc1cc(OC)c(OC)cc1CN1C(=O)SC(=Cc2cccc(O)c2O)C1=O	recombinant human PAI-1 (Homo sapiens)	%	93
Cc1cccc(N2N=C(C(C)C)C(=Cc3ccc(O)c(O)c3)C2=O)c1	recombinant human PAI-1 (Homo sapiens)	%	38

Consider now this further compound.
Consider O=C(O)c1cccc(N2N=C(C(F)(F)F)C(=Cc3ccc(-c4cc(Cl)cc(Cl)c4)o3)C2=O)c1 [compound 162] . Its measured Inhibitory Ratio at 25 μM (%) is 56
